# assay_protocol: gradient 5% acetonitrile 3 min, to 50% in 2 min, to 85% in 15 min, held 3 min, 100 µL/min
# condition_info: column: Zorbax Extend-C18 2.1 x 50 mm; eluents: water / acetonitrile, 0.1% formic acid
One threshold, 700 s, splits the recorded RP-LC retention time values: lower ones are yes, equal or higher ones are no.

{"columns": ["compound", "classification"],
 "data": [
  ["C=CCn1nc(C)c(-c2cc(C(=O)O)[nH]n2)c1C", "yes"],
  ["COC(=O)C1=CN(c2cccc(OC)c2)c2ccccc2S1(=O)=O", "no"],
  ["COc1ccc(-c2csc(C)n2)cc1S(=O)(=O)N1CCc2ccccc2C1", "no"],
  ["CCN1CCC2(CC1)N=C(c1ccc(Cl)cc1)CC(c1cccc(OC)c1O)N2 (stereo not drawn)", "yes"],
  ["CCNc1cc(N2CCCC(CCC(=O)NC(C)c3cn(C)nc3C)C2)ncn1 (stereo not drawn)", "yes"],
  ["CCN(CC)S(=O)(=O)c1ccc(C)c(-c2nnc(-c3ccccc3)o2)c1", "no"],
  ["Cc1nc(Nc2ccc(Br)cn2)sc1C(=O)N1CCN(C(C)C)CC1", "yes"],
  ["O=C(Cc1csc2nc(-c3cccc(Br)c3)cn12)Nc1ccc(F)cc1", "no"],
  ["COc1ccccc1NC(=O)NCC(c1cccnc1)c1cn(C)c2ccccc12 (stereo not drawn)", "yes"],
  ["COc1ccc(CCNC(=O)c2nc(CCS(=O)(=O)c3ccccc3)no2)cc1OC", "no"],
  ["CCCCC(=O)N1CCN(c2ccc(=O)n(-c3ccc(Cl)cc3)n2)CC1", "no"],
  ["COc1ccc(NC(=O)N2CCCC2c2nc(-c3cccc(F)c3)no2)cc1 (stereo not drawn)", "no"],
  ["CC(CNC(=O)c1nc(N2CCOCC2)c2ccccc2n1)c1ccccc1 (stereo not drawn)", "no"],
  ["Cc1ccc(N2CC(NC(=O)Nc3nc(C)cs3)CC2=O)cc1 (stereo not drawn)", "yes"],
  ["CCOC(=O)c1[nH]c2ccc(F)cc2c1NC(=O)CN(CC)CC", "yes"],
  ["Cc1ccnc(Nc2nc(-c3ccccc3C)cs2)c1", "no"],
  ["CCOc1ccc(OCC)c(N2C=C(C#N)S(=O)(=O)c3c(F)cccc32)c1", "no"],
  ["O=C(NC1CCCCC1)[C@@H]1C[C@@H](O)CN1C1CCN(C(=O)c2ccc(Cn3ccnc3)o2)CC1", "yes"]
]}

---

# assay_protocol: gradient 5% acetonitrile 3 min, to 50% in 2 min, to 85% in 15 min, held 3 min, 100 µL/min
# condition_info: column: Zorbax Extend-C18 2.1 x 50 mm; eluents: water / acetonitrile, 0.1% formic acid
One threshold, 800 s, splits the recorded RP-LC retention time values: lower ones are T, equal or higher ones are F.

{"columns": ["compound", "classification"],
 "data": [
  ["CCC1CCCCN1C(=O)c1cnc2nc(C)ccc2c1Nc1ccc(C)cc1C (configuration not stated)", "T"],
  ["COc1ccc(-c2ccc(N3CCCC(C(=O)NCc4cccs4)C3)nn2)cc1 (configuration not stated)", "T"],
  ["CN1CC(=O)NC(c2ccccc2Br)C1=O (configuration not stated)", "T"],
  ["CCN(CC)CCNC(=O)c1ccc(NCN2C(=O)NC(c3ccccc3)(c3ccccc3)C2=O)cc1", "T"],
  ["Cc1cc(C)c2c(N3CCCCC3)nc(C(=O)NC(C)c3cccnc3)nc2n1 (configuration not stated)", "T"],
  ["CCn1c(CCNC(=O)c2cccc(F)c2)nc2cccnc21", "T"],
  ["O=C(Nc1ccc2c(c1)N(C(=O)c1cccs1)CC2)c1c(F)cccc1Cl", "F"],
  ["COc1ccc(-c2[nH]c3ccccc3c2C(C[N+](=O)[O-])c2cccs2)cc1OC (configuration not stated)", "F"],
  ["COC(=O)c1ccccc1NC(=O)C1CCCN(c2ncnc3onc(-c4ccc(F)cc4)c23)C1 (configuration not stated)", "F"],
  ["CCOc1cc(Nc2ccc(NC(=O)c3ccco3)cc2)nc(C)n1", "T"],
  ["O=C(NCc1ccco1)c1csc(N2CCN(c3ccc(F)cc3)CC2)n1", "F"],
  ["CCN1CCN(CCNC(=O)Cn2c3ccccc3c3cnn(C)c(=O)c32)CC1", "T"],
  ["CCc1ccc(C(=O)NC2CCN(c3cc(-c4ccc(Cl)cc4)[nH]n3)C2)cc1 (configuration not stated)", "F"],
  ["CCCCC(=O)N1CCN(c2nc3ccccc3n(CC(C)C)c2=O)CC1", "F"],
  ["COc1cccc(CNc2ccc3[nH]c(=O)[nH]c3c2)c1OC", "T"],
  ["CCCC(NC(=O)c1cccs1)C(=O)Nc1nc2ccccc2[nH]1 (configuration not stated)", "T"],
  ["O=C(NC1CCN(c2cc(-c3ccccc3)[nH]n2)C1)c1ccc2c(c1)OCO2 (configuration not stated)", "T"],
  ["COC(=O)C1=C(C)N(C2CCCC2)C(=O)C1(NC(=O)c1cccc(OC)c1)C(F)(F)F (configuration not stated)", "F"],
  ["COCc1cc2nn(CC(=O)Nc3ccc(F)cc3)c(=O)n2c(-c2ccccc2)n1", "F"],
  ["CCOc1ccccc1NC(=O)N1CCc2nc(-c3ccc(Cl)cc3)ncc2C1", "F"],
  ["Clc1ccccc1-c1noc(Cc2nnc(-c3cccc(Br)c3)o2)n1", "F"],
  ["CCOC(=O)N1CCN(c2nc(F)c3c(c2F)S(=O)(=O)CCN3Cc2ccco2)CC1", "F"],
  ["CC(C)c1ccc(NC(=O)Cn2nc(N3CCOCC3)c3ccccc3c2=O)cc1", "F"],
  ["Cc1ccc2c(Nc3cc(F)ccc3F)c(C(=O)N3CCCC3)cnc2n1", "T"]
]}

---

# assay_protocol: gradient 5% acetonitrile 3 min, to 50% in 2 min, to 85% in 15 min, held 3 min, 100 µL/min
# condition_info: column: Zorbax Extend-C18 2.1 x 50 mm; eluents: water / acetonitrile, 0.1% formic acid
Listed next: entries and their corresponding RP-LC retention time.

{"columns": ["compound", "RP-LC retention time (s)"],
 "data": [
  ["O=C(CC1=C2CCCCC2NC1=O)Nc1cccc(F)c1 (stereo not given)", 719],
  ["CC(C)Cn1c(CCNC(=O)c2ccc(F)cc2)nc2cccnc21", 700],
  ["COc1ccc(NC(=O)Cn2cccc(-c3nc(-c4ccc(Br)cc4)no3)c2=O)cc1", 925],
  ["Cc1noc(C2CN(C(=O)Cc3ccccc3)CC23CCN(C)CC3)n1 (stereo not given)", 920],
  ["CCS(=O)(=O)Nc1ccc(-c2noc(CNS(=O)(=O)c3ccccc3)n2)cc1", 720]
]}

---

Listed next: entries and their corresponding RP-LC retention time.
# assay_protocol: gradient 5% acetonitrile 3 min, to 50% in 2 min, to 85% in 15 min, held 3 min, 100 µL/min
# condition_info: column: Zorbax Extend-C18 2.1 x 50 mm; eluents: water / acetonitrile, 0.1% formic acid

{"columns": ["compound", "unit_descriptor", "RP-LC retention time"],
 "data": [
  ["CCOc1ccc(-c2nc(-c3cccc(-c4ccnn4CC)c3)no2)cc1OCC", "s", 1300],
  ["Cc1ccc(S(=O)(=O)c2cnc(N3CCN(c4ccccn4)CC3)nc2N)cc1C", "s", 677],
  ["CC1CCCN(C(=O)C2CCN(S(=O)(=O)c3ccc4c(c3)CCCC(=O)N4)CC2)C1 (stereo not drawn)", "s", 731],
  ["N#Cc1c(NC(=O)CSc2nnc3ccccn23)sc2c1CCC2", "s", 704],
  ["CCC(C)NC(=O)Cn1c(=O)c2cnc(-c3ccc(Cl)cc3)nc2n(CC)c1=O (stereo not drawn)", "s", 740],
  ["Oc1cc2c(cc1O)[C@H]1c3ccccc3CN[C@@H]1CC2", "s", 628],
  ["COc1ccc(CCC(=O)Nc2cnn(-c3ncc(N4CCCC4)cn3)c2)cc1", "s", 822],
  ["CCOc1cc(-c2nc(C3CC(=O)N(c4ccc(OC)c(OC)c4)C3)no2)cc(OCC)c1OCC (stereo not drawn)", "s", 1060],
  ["Cc1cccc2c(C(=O)N(C)C)cc(=O)[nH]c12", "s", 597],
  ["Cc1nc(-c2ccccc2)nn1C1CCN(S(=O)(=O)c2ccccc2C(F)(F)F)C1 (stereo not drawn)", "s", 897],
  ["CCCNC(=O)COc1ccc(NC(=O)C2CC2)cn1", "s", 643],
  ["Cc1ccc(C(=O)NCCc2nc3cccnc3n2C)c(C)c1", "s", 623],
  ["Cc1ccc2nc(C(=O)NCCN3CCCCC3C)cn2c1 (stereo not drawn)", "s", 552],
  ["c1cc(CN2CCCCC2c2nncn2CC2CC2)co1 (stereo not drawn)", "s", 561],
  ["CCOc1ccc2ncc(C#N)c(NCc3ccccc3)c2c1", "s", 634],
  ["COC(=O)c1ccc(NC(=O)C(=O)NCC2(c3ccc(F)cc3)CC2)cc1", "s", 834],
  ["O=S(=O)(c1cccc(-c2cn3cc(Cl)ccc3n2)c1)N1CCCCCC1", "s", 944],
  ["COC(=O)c1cc(Cl)c(NC(=O)C(C)C)cc1OC", "s", 767],
  ["O=C(Cn1cnc2ccccc21)NCCCn1ccc2ccccc21", "s", 605],
  ["CCN1C(=O)C(C)(C)COc2ccc(NC(=O)Cc3ccc(F)cc3)cc21", "s", 889],
  ["O=C1CN(Cc2ccc(F)cc2Cl)CC2(CCCCC2)N1CC1CC1", "s", 1330],
  ["O=C(Nc1ccc(N2CCN(Cc3ccc(F)cc3)C2=O)nc1)c1ccco1", "s", 749],
  ["COc1ccc(NC(=O)CN2CCc3[nH]c4c(C)c(C)ccc4c(=O)c3C2)cc1Cl", "s", 650]
]}
